Values were extracted from the supplement of paper PMC13380429.

- Test system: Vero E6
- test.summary: cell viability relative to DMSO; higher = less toxic
- protocol.conditions: 72 h; 1000 nM
For each of the compounds below, state its cell viability.
Give just the number in %; leave the unit off.

Documented cell viability of CC(C)(C)[C@]1(O)CC2OC(=O)CC23C(=O)OC2OC(=O)[C@H](O)C231 (some centres not stated) [bilobalide] : 96.6

Documented cell viability of CCC[C@@H]1CC(=O)N([C@@H](CC)C(N)=O)C1 [Brivaracetam] : 97.5

Documented cell viability of Cc1oc(-c2ccccc2)nc1CCOc1ccc(CC2SC(=O)NC2=O)c2sccc12 (configuration not stated) [edaglitazone] : 83.7

Documented cell viability of O[C@@H]1[C@H](O)[C@@H](CCl)O[C@H]1n1cnc2c(NC3CC4CCC3C4)ncnc21 (mixture of isomers) [5'-chloro-5'-deoxy-ENBA-(+/-)] : 91.9

Documented cell viability of C=C1CC[C@H](O)C/C1=C/C=C1\CCC[C@]2(C)[C@@H]([C@H](C)CCCC(C)C)CC[C@@H]12 [cholecalciferol] : 93.8

Documented cell viability of CC(C)[C@H](O)C(=O)N[C@@H](C)C(=O)N[C@@H]1C(=O)N(C)CCc2ccccc21 [semagacestat] : 100

Documented cell viability of C[N@+]1(CC2CC2)CC[C@]23c4c5ccc(O)c4O[C@H]2C(=O)CC[C@@]3(O)[C@H]1C5 [methylnaltrexone] : 97.2
